inhibition values for the compounds below.
target: Tyrosine-protein phosphatase non-receptor type 2 (Homo sapiens); assay: Inhibition of human recombinant TCPTP expressed in Escherichia coli assessed as inhibition of phosphatase activity by measuring p-nitrophenyl phosphate at 6.7 microg/ml measured after 60 mins; details: dose 6.7 µg/ml

compound: COC(=O)[C@@]12[C@@]3(C)[C@@H]4C=C5C(=CC(=O)OC5(C)C)[C@@](C)(O)[C@@H]3C[C@@]3(C)C(=O)O[C@@H](O[C@@H](C)[C@@]1(O)O4)[C@@]23O
measured-on: Tyrosine-protein phosphatase non-receptor type 2 (Homo sapiens)
inhibition: < 60%
//
compound: CC1=C2CC(=O)OC(C)(C)[C@]23O[C@@H]3[C@@H]2O[C@@]3(O)[C@@H](C)O[C@H]4OC(=O)[C@]5(C)C[C@H]1[C@]2(C)[C@@]31C(=O)O[C@@]415
measured-on: Tyrosine-protein phosphatase non-receptor type 2 (Homo sapiens)
inhibition: < 60%
//
compound: COC(=O)[C@]12C(=O)[C@H](C)O[C@@H]3OC(=O)[C@](C)(C[C@H]4C(C)=C5CC(=O)OC(C)(C)C5=CC[C@@]41C)[C@@H]32 [BERKELEYACETAL A]
measured-on: Tyrosine-protein phosphatase non-receptor type 2 (Homo sapiens)
inhibition: < 60%

====

inhibition values for the compounds below.
Biological target: UniProtKB P17706
Sequence (whole entry): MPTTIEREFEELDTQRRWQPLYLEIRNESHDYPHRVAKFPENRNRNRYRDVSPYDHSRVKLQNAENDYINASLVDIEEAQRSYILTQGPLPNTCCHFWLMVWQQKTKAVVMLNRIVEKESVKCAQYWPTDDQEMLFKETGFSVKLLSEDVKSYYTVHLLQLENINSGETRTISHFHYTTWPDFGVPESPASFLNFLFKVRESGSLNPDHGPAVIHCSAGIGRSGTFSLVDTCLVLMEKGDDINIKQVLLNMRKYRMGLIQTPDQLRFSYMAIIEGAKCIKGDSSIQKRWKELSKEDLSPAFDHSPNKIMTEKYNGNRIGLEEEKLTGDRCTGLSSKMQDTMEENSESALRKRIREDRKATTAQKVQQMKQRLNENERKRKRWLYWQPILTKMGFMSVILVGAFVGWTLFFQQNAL
Assay: Inhibition of human recombinant TCPTP expressed in Escherichia coli assessed as inhibition of phosphatase activity by measuring p-nitrophenyl phosphate at 6.7 microg/ml measured after 60 mins
Conditions: dose 6.7 µg/ml
property: inhibition

record-smiles: CC1=C2CC(=O)OC(C)(C)C2=CC[C@@]2(C)[C@H]1C[C@@](C)(C(=O)O)[C@]13COC(=O)[C@@]12C(=O)[C@H](C)O3
observed-value: < 60%

record-smiles: COC(=O)CC1=C(C)[C@@H]2C[C@@]3(C)C(=O)O[C@H]4O[C@@H](C)[C@@]5(O)O[C@@H]([C@@H]6O[C@]16C(C)(C)O)[C@]2(C)[C@@]5(C(=O)OC)[C@]43O
observed-value: < 60%

record-smiles: COC(=O)[C@]12[C@@H]3[C@H]4OC(=O)[C@]3(C)CC3=C(C)C5=C(C[C@H](O[C@]1(O)[C@H](C)O4)[C@@]32C)C(C)(C)OC(=O)C5
observed-value: < 60%

====

biological target: M-phase inducer phosphatase 2 (Homo sapiens, UniProt P30305); experiment: Inhibition of human recombinant CDC25B expressed in Escherichia coli assessed as inhibition of phosphatase activity by measuring p-nitrophenyl phosphate measured after 60 mins
Sequence (P30305 whole entry): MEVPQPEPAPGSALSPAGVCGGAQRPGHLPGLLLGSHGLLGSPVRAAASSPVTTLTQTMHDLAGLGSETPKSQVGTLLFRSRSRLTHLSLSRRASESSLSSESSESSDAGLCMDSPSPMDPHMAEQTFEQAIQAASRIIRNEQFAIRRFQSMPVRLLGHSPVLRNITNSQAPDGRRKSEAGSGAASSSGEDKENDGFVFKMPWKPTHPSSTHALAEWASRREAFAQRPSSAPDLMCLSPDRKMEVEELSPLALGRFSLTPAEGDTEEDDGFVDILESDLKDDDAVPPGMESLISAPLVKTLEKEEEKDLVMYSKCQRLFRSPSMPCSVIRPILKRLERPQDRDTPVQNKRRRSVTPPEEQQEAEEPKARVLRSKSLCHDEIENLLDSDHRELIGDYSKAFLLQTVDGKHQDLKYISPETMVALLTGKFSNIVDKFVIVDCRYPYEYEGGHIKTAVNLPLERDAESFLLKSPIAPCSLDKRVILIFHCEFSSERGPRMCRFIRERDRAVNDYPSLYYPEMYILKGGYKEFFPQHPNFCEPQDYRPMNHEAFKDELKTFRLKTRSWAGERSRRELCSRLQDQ

record-smiles: COC(=O)[C@@]12[C@@]3(C)[C@@H]4C=C5C(=CC(=O)OC5(C)C)[C@@](C)(O)[C@@H]3C[C@@]3(C)C(=O)O[C@@H](O[C@@H](C)[C@@]1(O)O4)[C@@]23O
IC50: 13 µM
